B1: CPEB3 Ribozyme (parent)
chain: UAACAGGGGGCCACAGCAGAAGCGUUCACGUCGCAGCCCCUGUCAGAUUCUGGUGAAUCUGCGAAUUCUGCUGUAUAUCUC

Variants of: B1
test_protocol: self-cleavage, relative activity (ratio to wild type); higher = more cleavage; in vitro, sequencing
Please note: Criterion met applies when self-cleavage is 0.2 or greater, and Criterion not met applies otherwise.

[
  {
    "variant_label": "U54G A65G",
    "class_name": "Criterion met"
  },
  {
    "variant_label": "G7C G9A",
    "class_name": "Criterion met"
  },
  {
    "variant_label": "A20G A28C",
    "class_name": "Criterion met"
  },
  {
    "variant_label": "C23A U41A",
    "class_name": "Criterion met"
  },
  {
    "variant_label": "U25C U78G",
    "class_name": "Criterion met"
  },
  {
    "variant_label": "G6U A18U",
    "class_name": "Criterion not met"
  },
  {
    "variant_label": "C44A",
    "class_name": "Criterion met"
  },
  {
    "variant_label": "A15G C68U",
    "class_name": "Criterion met"
  },
  {
    "variant_label": "U41C U58G",
    "class_name": "Criterion met"
  },
  {
    "variant_label": "U58C A65U",
    "class_name": "Criterion met"
  },
  {
    "variant_label": "C17U A75U",
    "class_name": "Criterion met"
  },
  {
    "variant_label": "U60A G63C",
    "class_name": "Criterion met"
  },
  {
    "variant_label": "C23G U67A",
    "class_name": "Criterion met"
  },
  {
    "variant_label": "A35C U67C",
    "class_name": "Criterion met"
  },
  {
    "variant_label": "U43A C79A",
    "class_name": "Criterion met"
  },
  {
    "variant_label": "A5U C23G",
    "class_name": "Criterion not met"
  },
  {
    "variant_label": "A3G U51G",
    "class_name": "Criterion met"
  },
  {
    "variant_label": "G22A C37A",
    "class_name": "Criterion not met"
  },
  {
    "variant_label": "A28G C62A",
    "class_name": "Criterion met"
  },
  {
    "variant_label": "C39A A64G",
    "class_name": "Criterion not met"
  },
  {
    "variant_label": "A57G U69G",
    "class_name": "Criterion met"
  }
]
